- Test system: influenza virus (A/WSN/33)
- Procedure text: microbe, parasite or virus in culture
- Assay type: cell-based
- Experimental context: unidentified influenza virus, WSN, MDCK, 24 h, read-out: Viral Yield Reduction Assay IC50
Measured metric: IC50 (µM)
One number for each entry, in µM.

Some solved entries appear below for comparison.
Compound	IC50 / µM
O=c1c2c(O)c(Cc3ccccc3)c(=O)n(CCO)c2n(-c2ccccc2)c(=O)n1-c1ccccc1 [Compound S2a]	7.74
COc1c(C(C)c2ccccc2)c(=O)n(C)c2c1c(=O)n(-c1ccccc1)c(=O)n2-c1ccccc1 (stereo not drawn) [Compound S2d]	3.18
CC(c1ccccc1)c1c(O)c2c(=O)n(-c3ccccc3)c(=O)n(-c3ccccc3)c2[nH]c1=O (stereo not drawn) [Compound S2b]	4.96

Now consider the entry below.
Ask: Indicate its recorded IC50; the compound in question is CC(=O)n1c(=O)c(C(C)c2ccccc2)c(O)c2c(=O)n(-c3ccccc3)c(=O)n(-c3ccccc3)c21 (stereo not drawn) [Compound S2e]
Reply: 5.11

----------
The listing below reports IC50 for compounds tested on influenza RNP (Influenza A virus, UniProt P15659).
One number for each entry, in µM.

Some solved entries appear below for comparison.
Compound	IC50 (µM)
O=c1c2c(O)c(Cc3ccccc3)c(=O)n(CCO)c2n(-c2ccccc2)c(=O)n1-c1ccccc1	9.69
CC(c1ccccc1)c1c(O)c2c(=O)n(-c3ccccc3)c(=O)n(-c3ccccc3)c2[nH]c1=O (stereo not drawn)	14.2
Cc1ccccc1-n1c(NCCCN2CCOCC2)nc2ccccc2c1=O	87.8

For each entry beneath this line, provide reported IC50.
1. CC(=O)n1c(=O)c(C(C)c2ccccc2)c(O)c2c(=O)n(-c3ccccc3)c(=O)n(-c3ccccc3)c21 (stereo not drawn)
2. Cn1c(=O)c(Nc2ccccc2)c(O)c2c(=O)n(-c3ccccc3)c(=O)n(-c3ccccc3)c21

Reply:
[6.69, 62.4]

----------
- Procedure text: in vitro
- Experimental context: human
Measured metric: CC50 at 24 h

Molecule	CC50 at 24 h
O=c1c2ccccc2nc(NCCCN2CCOCC2)n1-c1ccc(F)cc1	> 100 µM

For each entry beneath this line, provide reported CC50 at 24 h.
1. CC(=O)n1c(=O)c(C(C)c2ccccc2)c(O)c2c(=O)n(-c3ccccc3)c(=O)n(-c3ccccc3)c21 (stereo not drawn)
2. Cc1ccccc1-n1c(NCCCN2CCOCC2)nc2ccccc2c1=O
3. CC(c1ccccc1)c1c(O)c2c(=O)n(-c3ccccc3)c(=O)n(-c3ccccc3)c2n(C)c1=O (stereo not drawn)
4. CC(c1ccccc1)c1c(O)c2c(=O)n(-c3ccccc3)c(=O)n(-c3ccccc3)c2[nH]c1=O (stereo not drawn)
5. O=c1c2c(O)c(Cc3ccccc3)c(=O)n(CCO)c2n(-c2ccccc2)c(=O)n1-c1ccccc1

Reply:
> 100 µM
> 100 µM
97.1 µM
> 100 µM
84.6 µM

----------
- Tested target: PAC (C-terminal domain of PA, residues 256–716 of A/WSN/33) (Influenza A virus, UniProt P15659)
- Procedure text: biochemical
- Format: binding, influenza A/WSN/33
Measured metric: pKd
Answers are plain numbers, as −log10 of the molar value.

Some solved entries appear below for comparison.
Molecule	Numeric result
O=c1c2c(O)c(Cc3ccccc3)c(=O)n(CCO)c2n(-c2ccccc2)c(=O)n1-c1ccccc1	5.75
CC(c1ccccc1)c1c(O)c2c(=O)n(-c3ccccc3)c(=O)n(-c3ccccc3)c2[nH]c1=O (stereo not shown)	4.79

Now consider the entry below.
Ask: Indicate its recorded pKd; the molecule in question is CC(=O)n1c(=O)c(C(C)c2ccccc2)c(O)c2c(=O)n(-c3ccccc3)c(=O)n(-c3ccccc3)c21 (stereo not shown)
Reply: 4.29
